Target: human cloned CHRM2 receptor (Homo sapiens, UniProt P08172)
Sequence (P08172 1-466): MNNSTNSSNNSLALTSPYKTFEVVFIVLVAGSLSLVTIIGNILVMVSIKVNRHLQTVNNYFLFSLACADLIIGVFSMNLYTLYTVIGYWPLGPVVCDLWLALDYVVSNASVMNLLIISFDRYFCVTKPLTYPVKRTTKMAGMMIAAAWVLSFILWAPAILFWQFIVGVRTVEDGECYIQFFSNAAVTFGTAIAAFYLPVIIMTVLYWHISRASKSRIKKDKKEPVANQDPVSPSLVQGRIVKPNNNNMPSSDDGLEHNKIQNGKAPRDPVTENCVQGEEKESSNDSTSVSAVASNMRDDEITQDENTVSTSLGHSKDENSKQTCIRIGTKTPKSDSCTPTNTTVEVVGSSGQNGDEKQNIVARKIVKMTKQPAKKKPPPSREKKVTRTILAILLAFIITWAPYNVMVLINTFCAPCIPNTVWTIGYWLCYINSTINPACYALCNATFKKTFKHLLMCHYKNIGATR
Assay: CHRM2 Ca++ Flux Assay (M2_CHO cells, agonist mode)
Conditions: M2 CHO cells, agonist mode; geometric mean if tested more than once; read-out: M2 FDSS EC50
Assign labels as follows, please: 1 (yes) for EC50 below 2000 nM; 0 (no) for EC50 equal to or exceeding 2000 nM.

{"columns": ["MOLECULE", "TARGET SYSTEM", "LABEL"],
 "data": [
  ["Fc1ccc(OC[C@@H]2COCCO2)c(C2CCN([C@@H]3COC4(C3)CN(c3nncs3)C4)CC2)c1", "human cloned CHRM2 receptor (Homo sapiens, UniProt P08172)", "1 (yes)"],
  ["COc1cc(F)ccc1C1CCN([C@@H]2COC3(C2)CN(c2nncs2)C3)CC1", "human cloned CHRM2 receptor (Homo sapiens, UniProt P08172)", "0 (no)"],
  ["COc1ccc(Cl)cc1C1CCN([C@@H]2COC3(C2)CN(c2ncns2)C3)CC1", "human cloned CHRM2 receptor (Homo sapiens, UniProt P08172)", "0 (no)"],
  ["Fc1ccc([C@H]2CCOC2)c(C2CCN([C@@H]3COC4(C3)CN(c3nnco3)C4)CC2)c1 (single isomer, unassigned) [Example 3E]", "human cloned CHRM2 receptor (Homo sapiens, UniProt P08172)", "1 (yes)"],
  ["Fc1cc(OC2COC2)c(C2CCN([C@@H]3COC4(C3)CN(c3ncco3)C4)CC2)cc1F", "human cloned CHRM2 receptor (Homo sapiens, UniProt P08172)", "1 (yes)"],
  ["Fc1ccc(OCC2CC3(COC3)C2)c(C2CCN([C@@H]3COC4(C3)CN(c3nnco3)C4)CC2)c1", "human cloned CHRM2 receptor (Homo sapiens, UniProt P08172)", "0 (no)"],
  ["Fc1cc(F)c(O[C@@H]2CCOC2)c(C2CCN([C@@H]3COC4(C3)CN(c3nnco3)C4)CC2)c1", "human cloned CHRM2 receptor (Homo sapiens, UniProt P08172)", "0 (no)"],
  ["Fc1cc(O[C@@H]2CCOC2)c(C2CCN([C@@H]3COC4(C3)CN(c3nncs3)C4)CC2)cc1F", "human cloned CHRM2 receptor (Homo sapiens, UniProt P08172)", "1 (yes)"],
  ["Fc1ccc(OC2CCOCC2)c(C2CCN([C@@H]3COC4(C3)CN(c3nnco3)C4)CC2)c1", "human cloned CHRM2 receptor (Homo sapiens, UniProt P08172)", "1 (yes)"],
  ["C[C@H](Oc1ccc(F)cc1C1CCN([C@@H]2COC3(C2)CN(c2nnco2)C3)CC1)C1CCOCC1 (single isomer, unassigned) [Example 2Y]", "human cloned CHRM2 receptor (Homo sapiens, UniProt P08172)", "0 (no)"],
  ["CC(C)(O)CCOc1cc(F)ccc1C1CCN([C@@H]2COC3(C2)CN(c2nnco2)C3)CC1", "human cloned CHRM2 receptor (Homo sapiens, UniProt P08172)", "0 (no)"],
  ["Fc1ccc(C2CCOCC2)c(C2CCN([C@@H]3COC4(C3)CN(c3nnco3)C4)CC2)c1", "human cloned CHRM2 receptor (Homo sapiens, UniProt P08172)", "1 (yes)"],
  ["c1ccc(C2CCN([C@@H]3COC4(C3)CN(c3ncco3)C4)CC2)c(OC2COC2)c1", "human cloned CHRM2 receptor (Homo sapiens, UniProt P08172)", "1 (yes)"],
  ["COc1cc(F)ccc1C1CCN([C@@H]2COC3(C2)CN(c2nnco2)C3)CC1", "human cloned CHRM2 receptor (Homo sapiens, UniProt P08172)", "1 (yes)"],
  ["c1ccc(C2CCN([C@@H]3COC4(C3)CN(c3nnco3)C4)CC2)c(CC2CCOCC2)c1", "human cloned CHRM2 receptor (Homo sapiens, UniProt P08172)", "0 (no)"]
]}

Ref: patent US11485742B2
